B1: TRIM15 (parent)
chain: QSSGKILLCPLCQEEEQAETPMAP

Variants of: B1
Experiment: protein stability index of a GFP-peptide fusion (GPS, HEK-293T) (PSI 1-6); higher = more stable;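 further: lentivirally expressed fusions sorted by FACS into six bins by GFP to DsRed ratio, PSI derived from sequencing read proportions per bin multiplied by bin number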
Details: c terminus: a fixed tail appended
Label met when protein stability index is at or above 3; anything below gets not met.

[[record]]
variant_string = "L8Q"
assigned_category = "met"

[[record]]
variant_string = "P24M"
assigned_category = "met"

[[record]]
variant_string = "S3K"
assigned_category = "met"

[[record]]
variant_string = "A18I"
assigned_category = "met"

[[record]]
variant_string = "Q17V"
assigned_category = "not met"

[[record]]
variant_string = "E15W"
assigned_category = "not met"

[[record]]
variant_string = "E19P"
assigned_category = "not met"

[[record]]
variant_string = "C12Q"
assigned_category = "met"

[[record]]
variant_string = "Q13R"
assigned_category = "not met"

[[record]]
variant_string = "K5E"
assigned_category = "met"

[[record]]
variant_string = "P24G"
assigned_category = "met"

[[record]]
variant_string = "T20C"
assigned_category = "met"

[[record]]
variant_string = "I6E"
assigned_category = "met"

[[record]]
variant_string = "G4Q"
assigned_category = "met"

[[record]]
variant_string = "C9F"
assigned_category = "met"

[[record]]
variant_string = "L11E"
assigned_category = "met"

[[record]]
variant_string = "P24Q"
assigned_category = "met"

[[record]]
variant_string = "E14P"
assigned_category = "met"

[[record]]
variant_string = "G4S"
assigned_category = "not met"

[[record]]
variant_string = "S2D"
assigned_category = "met"

[[record]]
variant_string = "I6R"
assigned_category = "met"

[[record]]
variant_string = "C9H"
assigned_category = "met"

[[record]]
variant_string = "K5Y"
assigned_category = "not met"

[[record]]
variant_string = "Q13G"
assigned_category = "met"

[[record]]
variant_string = "E16Q"
assigned_category = "not met"

[[record]]
variant_string = "L7A"
assigned_category = "met"

[[record]]
variant_string = "Q1T"
assigned_category = "met"

[[record]]
variant_string = "T20P"
assigned_category = "met"

[[record]]
variant_string = "E15N"
assigned_category = "not met"

[[record]]
variant_string = "E16C"
assigned_category = "not met"

[[record]]
variant_string = "E16W"
assigned_category = "not met"

[[record]]
variant_string = "C12A"
assigned_category = "met"

[[record]]
variant_string = "Q13E"
assigned_category = "met"

[[record]]
variant_string = "Q17K"
assigned_category = "met"

[[record]]
variant_string = "A18M"
assigned_category = "met"

[[record]]
variant_string = "L11S"
assigned_category = "met"

[[record]]
variant_string = "M22N"
assigned_category = "met"

[[record]]
variant_string = "E19Q"
assigned_category = "not met"

[[record]]
variant_string = "E14K"
assigned_category = "met"

[[record]]
variant_string = "P21I"
assigned_category = "not met"

